Taken from ChEMBL document CHEMBL3988442.

tested-target: Chromo domain-containing protein 1 (Saccharomyces cerevisiae (strain ATCC 204508 / S288c) (Baker's yeast))
assay-overview: ScCHD-1 Enzyme Inhibition Assay
Assay type: functional
Design: scale not given: in the data most compounds retested in dose-response had high values
condition: 30 µM
property-label: Percent Effect (%)
Please respond with the number in % and leave the unit unwritten.

Task item: I have this compound here, COCc1cccc(NC(C)C(=O)N(C)Cc2cccc(F)c2)c1 (stereo unspecified) , and I need its recorded Percent Effect.
Reply: -5.78

Task item: Requested field: Percent Effect. Item: CCN1CCN(C(=O)c2cc(C(=O)OC)nn2-c2ccccc2)CC1
Reply: -8.31

Task item: // returns reported Percent Effect for input CCN(c1ccc(C(=O)NCCCN2CCCC2)cc1)S(=O)(=O)CC
Reply: -3.78

Task item: State the recorded Percent Effect for this entry: CC(C)n1cc(CN2CCCN(C(=O)c3cc(Cl)c[nH]3)CC2)cn1
Reply: -8.52

Task item: What value of Percent Effect has been recorded for this entry: CCc1nc(C(=O)N2CCCC2)nn1-c1ccccc1Cl
Reply: -7.11

Task item: Query (compound): Cc1nc(C)n(CC2CCCN(Cc3nnc(C(C)(C)C)o3)C2)n1 (stereo unspecified) ; field requested: Percent Effect
Reply: -3.94

Task item: Any idea what Percent Effect was measured for COCC1CN(C(=O)CNC(C)=O)Cc2ncnn2C1 (stereo unspecified) ?
Reply: 0.679

Task item: Item Cc1noc(CN2Cc3ccccc3CC2c2nnc(C)o2)n1 (stereo unspecified) has what recorded Percent Effect?
Reply: 3.28

Task item: Item CC(=O)NC(C)CC(=O)NCc1cccnc1Oc1ccccc1C (stereo unspecified) has what recorded Percent Effect?
Reply: -3.08

Task item: Could you share which Percent Effect value was measured for Cc1nc(CN2C[C@@H]3CN(C(=O)c4cccn4C)C[C@@H]3C2=O)cs1 ?
Reply: -1.02

Task item: Consider the compound shown here: CCN(Cc1ccco1)C(=O)NCc1nnc2n1CCC2 What is its recorded Percent Effect?
Reply: -1.97
